B1: MATN2 (parent)
chain: FSLKTFKRKSEVERAVKRMRHLST

Variants of: B1
Assay: protein stability index of a GFP-peptide fusion (GPS, HEK-293T) (PSI 1-6); higher = more stable;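 further: lentivirally expressed fusions sorted by FACS into six bins by GFP to DsRed ratio, PSI derived from sequencing read proportions per bin multiplied by bin number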
Conditions: c terminus: a fixed tail appended

# chainSequence, protein stability index
data = [
    ("FSLKTFKRKSNVERAVKRMRHLST", 2.82),
    ("FSLKTFKRQSEVERAVKRMRHLST", 2.52),
    ("FSLKTFKRCSEVERAVKRMRHLST", 2.91),
    ("FSLKTFKRKSEVEEAVKRMRHLST", 2.49),
    ("FSLKTFKRKSEVERAVKNMRHLST", 2.52),
    ("FSLKTFKRKSEVTRAVKRMRHLST", 2.41),
    ("FSLKTFKRKSIVERAVKRMRHLST", 1.96),
    ("FSLKTFKRKTEVERAVKRMRHLST", 2.73),
    ("WSLKTFKRKSEVERAVKRMRHLST", 1.69),
    ("FSLKTFKRKSEVERAVHRMRHLST", 3.01),
    ("FSLKTFKRKSEVERWVKRMRHLST", 2.17),
]
